# test.details: Hydrodynamic size and size distribution of nanoprodrugs by dynamic light scattering
# Format: physicochemical
# measurement.setup: nanoprodrugs of the derivative, Table 2A, n = 3, ±S.D., DLS 25° C.
Entries annotated with measured Size (nm)
endpoint: Size (nm)

>>> test_result("COc1ccc2c(c1)c(CC(=O)OCCOCCOCCOCCOC(=O)Cc1c(C)n(C(=O)c3ccc(Cl)cc3)c3ccc(OC)cc13)c(C)n2C(=O)c1ccc(Cl)cc1")
159
>>> test_result("CC(C)Cc1ccc(C(C)C(=O)OCCOCCOCCOCCOC(=O)CCCCC2CCSS2)cc1 (stereo not drawn)")
251
>>> test_result("COc1ccc2cc([C@H](C)C(=O)OCCOCCOCCOCCOC(=O)CCCCC3CCSS3)ccc2c1 (stereo partly drawn)")
298
>>> test_result("COc1ccc2c(c1)c(CC(=O)OCCOCCOCCOCCOC(=O)CCCCC1CCSS1)c(C)n2C(=O)c1ccc(Cl)cc1 (stereo not drawn)")
253
>>> test_result("COc1ccc2cc(C(C)C(=O)OCCOCCOCCOCCOC(=O)C(C)c3ccc4cc(OC)ccc4c3)ccc2c1 (stereo not drawn)")
259
>>> test_result("CC(C)Cc1ccc(C(C)C(=O)OCCOCCOCCOCCOC(=O)C(C)c2ccc(CC(C)C)cc2)cc1 (stereo not drawn)")
186

* * *

# test.details: Hydrodynamic size and size distribution of nanoprodrugs by dynamic light scattering
# Assay type: physicochemical
# measurement.setup: hydrodynamic size of additional nanospheres, Table 2B
endpoint: Size (nm)

>>> test_result("COc1ccc2cc([C@H](C)C(=O)OCCOCCOC(=O)CCCCC3CCSS3)ccc2c1 (stereo partly shown)")
274
>>> test_result("COc1ccc2c(c1)c(CC(=O)OCCOCCOC(=O)CCCCC1CCSS1)c(C)n2C(=O)c1ccc(Cl)cc1 (stereo not shown)")
187
>>> test_result("CC(C)Cc1ccc(C(C)C(=O)OCCOCCOC(=O)CCCCC2CCSS2)cc1 (stereo not shown)")
210
>>> test_result("O=C(CCCCC1CCSS1)OCCOCCOCCOCCOC(=O)c1ccccc1Nc1cccc(C(F)(F)F)c1 (stereo not shown)")
149

* * *

# test.details: Hydrodynamic size and size distribution of nanoprodrugs by dynamic light scattering
# Format: physicochemical
# measurement.setup: polydispersity index of nanoprodrugs, Table 2A, n = 3, ±S.D.
Entries annotated with measured P.I.
endpoint: P.I.

>>> test_result("COc1ccc2cc([C@H](C)C(=O)OCCOCCOCCOCCOC(=O)CCCCC3CCSS3)ccc2c1 (stereo partly drawn) [ALA-TEG-Npx]")
0.05
>>> test_result("COc1ccc2c(c1)c(CC(=O)OCCOCCOCCOCCOC(=O)CCCCC1CCSS1)c(C)n2C(=O)c1ccc(Cl)cc1 (stereo not drawn) [ALA-TEG-Ind]")
0.09
>>> test_result("COc1ccc2cc(C(C)C(=O)OCCOCCOCCOCCOC(=O)C(C)c3ccc4cc(OC)ccc4c3)ccc2c1 (stereo not drawn) [Npx2TEG]")
0.06
>>> test_result("CC(C)Cc1ccc(C(C)C(=O)OCCOCCOCCOCCOC(=O)CCCCC2CCSS2)cc1 (stereo not drawn) [ALA-TEG-Ibu]")
0.10
>>> test_result("CC(C)Cc1ccc(C(C)C(=O)OCCOCCOCCOCCOC(=O)C(C)c2ccc(CC(C)C)cc2)cc1 (stereo not drawn) [Ibu2TEG, Tetraethylene glycol(ibuprofen)2]")
0.13
>>> test_result("COc1ccc2c(c1)c(CC(=O)OCCOCCOCCOCCOC(=O)Cc1c(C)n(C(=O)c3ccc(Cl)cc3)c3ccc(OC)cc13)c(C)n2C(=O)c1ccc(Cl)cc1 [Ind2TEG]")
0.06

* * *

Entries annotated with measured P.I.
# test.details: Hydrodynamic size and size distribution of nanoprodrugs by dynamic light scattering
# Type: physicochemical
# measurement.setup: polydispersity index of additional nanospheres, Table 2B
endpoint: P.I.

>>> test_result("COc1ccc2cc([C@H](C)C(=O)OCCOCCOC(=O)CCCCC3CCSS3)ccc2c1 (stereo partly shown)")
0.05
>>> test_result("CC(C)Cc1ccc(C(C)C(=O)OCCOCCOC(=O)CCCCC2CCSS2)cc1 (stereo not shown)")
0.09
>>> test_result("COc1ccc2c(c1)c(CC(=O)OCCOCCOC(=O)CCCCC1CCSS1)c(C)n2C(=O)c1ccc(Cl)cc1 (stereo not shown)")
0.13
>>> test_result("O=C(CCCCC1CCSS1)OCCOCCOCCOCCOC(=O)c1ccccc1Nc1cccc(C(F)(F)F)c1 (stereo not shown)")
0.08

From: patent US8603531B2
